// data source = paper PMC6110851

# assay: MicroPET distribution of [^18F]-GA after PG polysaccharides intervention
# Type: in vivo, mice
# runParameters: male, Kunming, mouse, lungs, po, mice, PG polysaccharides orally 1 h before [^18F]-GA, Time(s) 3300; read-out: %ID/g of [^18F]-GA in the lungs, OA
valueKind: tissue uptake at 1 h (%ID/g)
Only the number, expressed in %ID/g, is required.

Query: I am curious: what tissue uptake at 1 h value has been reported for CC1(C)[C@@H](O)CC[C@]2(C)[C@H]3C(=O)C=C4[C@@H]5C[C@@](C)(C(=O)NCCCC[18F])CC[C@]5(C)CC[C@@]4(C)[C@]3(C)CC[C@@H]12 [[^18F]-GA, [^18F]-Glycyrrhetinic acid] ?
Response: 3.17
